target.or.test.system: BCL-XL (Homo sapiens)
Construct: BCL-XL degradation results in MOLT-4 cells for compounds of the invention; endogenous in cells; host or cells: MOLT-4
Sequence (Q07817 whole entry): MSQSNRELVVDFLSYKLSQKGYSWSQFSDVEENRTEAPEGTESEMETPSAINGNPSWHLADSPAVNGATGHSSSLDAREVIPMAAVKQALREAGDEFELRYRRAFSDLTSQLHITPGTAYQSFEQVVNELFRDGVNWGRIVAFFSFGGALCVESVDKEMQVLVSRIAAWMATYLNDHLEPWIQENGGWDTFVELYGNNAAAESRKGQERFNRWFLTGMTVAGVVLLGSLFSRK
method.description: BCL-XL degradation assay in MOLT-4 cells (ELISA, 6 h)
Format: cell-based
Here the recorded Dmax is given for each entry.

Guide cases for Dmax, answers given:
Cc1ncsc1-c1ccc([C@H](C)NC(=O)[C@@H]2C[C@@H](O)CN2C(=O)[C@@H](NC(=O)CCCCCC(=O)N2CCCN(CC[C@H](CSc3ccccc3)Nc3ccc(S(=O)(=O)NC(=O)c4ccc(N5CCN([C@@H](O)c6ccccc6-c6ccc(Cl)cc6)CC5)cc4)cc3S(=O)(=O)C(F)(F)F)CC2)C(C)(C)C)cc1 [I-124] :: 50 to 75%
Cc1ncsc1-c1ccc(CNC(=O)[C@@H]2C[C@@H](O)CN2C(=O)[C@@H](NC(=O)CCCCCC(=O)N2CC3(CN(CC[C@H](CSc4ccccc4)Nc4ccc(S(=O)(=O)NC(=O)c5ccc(N6CCN([C@@H](O)c7ccccc7-c7ccc(Cl)cc7)CC6)cc5)cc4S(=O)(=O)C(F)(F)F)C3)C2)C(C)(C)C)cc1 [I-125] :: 50 to 75%

Could you now look at the following compound, please?
If you can, please state the reported Dmax value of Cc1ncsc1-c1ccc([C@H](C)NC(=O)[C@@H]2C[C@@H](O)CN2C(=O)[C@@H](NC(=O)CCCCCC(=O)N2CCN(CCCNc3ccc(S(=O)(=O)NC(=O)c4ccc(N5CCN(CC6=C(c7ccc(Cl)cc7)CC(C)(C)CC6)CC5)cc4Oc4cnc5[nH]ccc5c4)cc3S(=O)(=O)C(F)(F)F)CC2)C(C)(C)C)cc1 [I-22] .
> 75%

Numbers sourced from patent US20260092057A1.
